The compounds listed here are annotated with their hERG current change (%, negative = inhibition) at 10uM.
# tested target: human ether-à-go-go-related gene (hERG) potassium channel (human, UniProt Q12809)
# Sequence (Q12809 whole entry, looked up): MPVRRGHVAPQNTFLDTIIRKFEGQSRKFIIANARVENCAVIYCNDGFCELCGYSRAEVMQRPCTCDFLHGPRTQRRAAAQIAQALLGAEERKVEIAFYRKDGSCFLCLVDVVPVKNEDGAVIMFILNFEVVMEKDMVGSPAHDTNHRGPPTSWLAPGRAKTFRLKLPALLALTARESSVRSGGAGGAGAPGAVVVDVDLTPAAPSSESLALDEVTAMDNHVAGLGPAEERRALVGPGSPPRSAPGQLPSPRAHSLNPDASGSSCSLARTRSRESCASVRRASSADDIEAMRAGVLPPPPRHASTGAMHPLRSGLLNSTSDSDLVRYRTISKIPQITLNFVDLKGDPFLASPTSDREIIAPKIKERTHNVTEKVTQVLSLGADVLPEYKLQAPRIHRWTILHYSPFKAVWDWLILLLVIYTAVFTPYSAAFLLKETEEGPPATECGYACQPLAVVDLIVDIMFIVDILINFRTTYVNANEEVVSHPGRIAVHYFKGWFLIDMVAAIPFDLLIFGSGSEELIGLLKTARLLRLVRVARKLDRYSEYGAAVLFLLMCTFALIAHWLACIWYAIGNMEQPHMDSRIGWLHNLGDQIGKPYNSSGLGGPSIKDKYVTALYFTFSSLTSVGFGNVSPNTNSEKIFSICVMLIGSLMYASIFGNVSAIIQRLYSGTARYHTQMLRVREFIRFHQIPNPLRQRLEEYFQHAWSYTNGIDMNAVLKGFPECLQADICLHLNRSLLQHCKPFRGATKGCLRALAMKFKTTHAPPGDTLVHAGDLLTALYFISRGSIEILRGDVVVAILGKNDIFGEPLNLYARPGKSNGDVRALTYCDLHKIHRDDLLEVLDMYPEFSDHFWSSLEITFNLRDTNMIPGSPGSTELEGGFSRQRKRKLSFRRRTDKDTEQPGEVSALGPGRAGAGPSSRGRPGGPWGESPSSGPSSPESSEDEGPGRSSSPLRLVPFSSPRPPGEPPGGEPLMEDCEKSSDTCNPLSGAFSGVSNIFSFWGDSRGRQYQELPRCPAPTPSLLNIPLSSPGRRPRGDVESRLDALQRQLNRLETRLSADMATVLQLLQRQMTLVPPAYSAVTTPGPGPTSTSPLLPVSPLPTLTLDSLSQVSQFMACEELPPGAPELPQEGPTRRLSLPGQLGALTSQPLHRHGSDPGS
# assay method text: primary screen, population patch clamp on CHO cells stably expressing hERG; higher = less effect of the substance
The whole screen tested about 310,000 compounds, of which about 14,000 (4.5%) showed an effect of 50% or more. Effects have a minus sign here. Many of the other results were omitted from the sample, so strong results are more common in it than they were.
Number only, in %; omit the unit.

> print(dat)
                                   compound  endpoint.result
1  COc1ccc(Br)cc1-c1nc2c(c(=O)[nH]c(=O)n2Cc2ccccc2)n1C             5.42
2  Cc1ccc(CN2CCN(Cc3ccccn3)CC2CCO)cc1 (stereo not shown)            -47.9
3          COc1ccc(OCc2cc(C(=O)O)c(C)o2)cc1             2.69
4         CCc1ccccc1NS(=O)(=O)c1cc(C)ccc1OC            -5.89
5  Cc1ccc(CN2CCN(Cc3cccn3-c3ccc(Cl)cn3)CC2CCO)o1 (stereo not shown)            -23.3

Exercise: Which hERG current change (%, negative = inhibition) at 10uM is reported for this compound? COc1ccc(CNC(=O)c2cc(=O)c3cc(C)cc(C)c3o2)cc1
Key: 2.04

Exercise: Value lookup for hERG current change (%, negative = inhibition) at 10uM; key = OCCC1CN(Cc2cccn2-c2ccccn2)CCN1C1CCCC1 (stereo not shown)
Key: -18.9

Exercise: I have this compound here, Cc1ccc(CN2CCN(Cc3cccn3-c3ccccn3)CC2CCO)cc1 (stereo not shown) , and I need its recorded hERG current change (%, negative = inhibition) at 10uM.
Key: -82

Exercise: Item Cc1ccc(CN2CCN(Cc3cccn3-c3ccccn3)CC2CCO)o1 (stereo not shown) has what recorded hERG current change (%, negative = inhibition) at 10uM?
Key: -66.1

Exercise: State the recorded hERG current change (%, negative = inhibition) at 10uM for this entry: COc1ccc(Cl)cc1C(=O)NNC(=O)CSc1nnnn1C
Key: 9.95

* * *

# tested target: human ether-à-go-go-related gene (hERG) potassium channel (human, UniProt Q12809)
# assay method text: primary screen, population patch clamp on CHO cells stably expressing hERG; higher = less effect of the substance
Screen size: about 310,000 compounds; about 14,000 (4.5%) showed an effect of 50% or more. The effect is printed as a negative number. The entries come from a sample that favours strong results as a whole.
assay metric: hERG current change (%, negative = inhibition) at 10uM (%)
Number in %, nothing else.

# count of solved cases: 5
> print(dat)
                                   molecule                             tested.target  endpoint.result
1  CCCCN(Cc1ccco1)S(=O)(=O)c1ccc(-c2ccc(=O)[nH]n2)s1  human ether-à-go-go-related gene (hERG) potassium channel (human, UniProt Q12809)            -27.7
2    COc1ccccc1C(=O)Nc1ccccc1C(=O)NC1CCCCC1  human ether-à-go-go-related gene (hERG) potassium channel (human, UniProt Q12809)            -1.19
3             O=S(=O)(NCc1cccs1)c1ccc(Br)s1  human ether-à-go-go-related gene (hERG) potassium channel (human, UniProt Q12809)             2.07
4  CCCCN(Cc1cccs1)S(=O)(=O)c1ccc(-c2ccc(=O)[nH]n2)s1  human ether-à-go-go-related gene (hERG) potassium channel (human, UniProt Q12809)             -3.4
5  COc1cccc(C2=NOC(C(=O)Nc3ccc(OC)c(OC)c3)C2)c1 (centres unmarked)  human ether-à-go-go-related gene (hERG) potassium channel (human, UniProt Q12809)            -11.8

Exercise: Observed hERG current change (%, negative = inhibition) at 10uM on human ether-à-go-go-related gene (hERG) potassium channel (human, UniProt Q12809) for COc1ccc(NC(=O)C2CC(=O)N(Cc3ccco3)C2)cc1Cl (centres unmarked) , please.
Key: -4.14

Exercise: Give the reported hERG current change (%, negative = inhibition) at 10uM for O=C(Nc1cccnc1)C1(c2ccccc2)CCCC1 (system: human ether-à-go-go-related gene (hERG) potassium channel (human, UniProt Q12809)).
Key: 4.11

Exercise: Short answer please: hERG current change (%, negative = inhibition) at 10uM, human ether-à-go-go-related gene (hERG) potassium channel (human, UniProt Q12809), entry Cc1n[nH]c(=O)c2c(NC(=O)CSc3nc4ccccc4c(=O)n3CCCO)oc(C)c12
Key: -21.2

Exercise: Observed hERG current change (%, negative = inhibition) at 10uM on human ether-à-go-go-related gene (hERG) potassium channel (human, UniProt Q12809) for Cc1ccc2nc(SCC(=O)N3c4ccccc4CC3C)c(C)cc2c1 (centres unmarked) , please.
Key: 7.54

Exercise: Look up hERG current change (%, negative = inhibition) at 10uM with human ether-à-go-go-related gene (hERG) potassium channel (human, UniProt Q12809) for this molecule: Cc1cc(C(=O)N2CCC(CO)(Cc3cccc(C(F)(F)F)c3)CC2)n[nH]1
Key: -49.4

Exercise: Give the reported hERG current change (%, negative = inhibition) at 10uM for COc1ccc(NC(=O)CS(=O)CC(=O)Nc2ccc(-n3cnnn3)c(C)c2)cc1 (centres unmarked) (system: human ether-à-go-go-related gene (hERG) potassium channel (human, UniProt Q12809)).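 Further: peak tail current of the secondary pulse compared with the same well before compound.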
Key: 12.4

Exercise: Look up hERG current change (%, negative = inhibition) at 10uM with human ether-à-go-go-related gene (hERG) potassium channel (human, UniProt Q12809) for this molecule: O=[N+]([O-])c1cc(S(=O)(=O)Nc2cccc(C(F)(F)F)c2)ccc1-n1nnc2ccccc21
Key: 0.81

Exercise: I'm curious: which hERG current change (%, negative = inhibition) at 10uM was measured for O=C1CSC(c2cccnc2)N1c1ccccc1 (centres unmarked) tested on human ether-à-go-go-related gene (hERG) potassium channel (human, UniProt Q12809)?;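 further: peak tail current of the secondary pulse compared with the same well before compound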
Key: 13

Exercise: Request body: readout hERG current change (%, negative = inhibition) at 10uM, system human ether-à-go-go-related gene (hERG) potassium channel (human, UniProt Q12809), query Cc1cccc(C(=O)Oc2cc(C)[nH]c(=O)c2[N+](=O)[O-])c1 . Return the value.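 Further: peak tail current of the secondary pulse compared with the same well before compound.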
Key: 16.7

Exercise: Query the reported hERG current change (%, negative = inhibition) at 10uM for human ether-à-go-go-related gene (hERG) potassium channel (human, UniProt Q12809); item: CCCCn1c(NC(=O)c2ccc(F)cc2)c(C#N)c2nc3ccccc3nc21
Key: 6.88

Exercise: Return hERG current change (%, negative = inhibition) at 10uM measured with human ether-à-go-go-related gene (hERG) potassium channel (human, UniProt Q12809) given this molecule: Cl.NCCOc1ccccc1OCCN
Key: 22.1

Exercise: Lookup: hERG current change (%, negative = inhibition) at 10uM / human ether-à-go-go-related gene (hERG) potassium channel (human, UniProt Q12809) / CN(C)CCN(Cc1ccco1)S(=O)(=O)c1ccc(-c2ccc(=O)[nH]n2)s1
Key: -64.4

Exercise: Reported hERG current change (%, negative = inhibition) at 10uM for human ether-à-go-go-related gene (hERG) potassium channel (human, UniProt Q12809), given CC1CCCN(Cc2nc3c(c(=O)n(C)c(=O)n3C)n2CC(=O)c2ccccc2)C1 (centres unmarked) ?
Key: -8.71

Exercise: API: value(readout=hERG current change (%, negative = inhibition) at 10uM, system=human ether-à-go-go-related gene (hERG) potassium channel (human, UniProt Q12809)) for record O=[N+]([O-])c1ccc(-c2ccc(/C=N/c3c(-c4ccco4)nc4ccccn34)o2)cc1;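 further: peak tail current of the secondary pulse compared with the same well before compound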
Key: 8.33

Exercise: Give hERG current change (%, negative = inhibition) at 10uM (human ether-à-go-go-related gene (hERG) potassium channel (human, UniProt Q12809)) of the following molecule: CCOC(=O)Cc1cc(=O)c2c(=O)n(-c3ccccc3)[nH]c2[nH]1
Key: 9.55
